# targetOrTestSystem: G1 APOL1 (Homo sapiens, UniProt O14791, I384M/S342G)
# Construct: expressed in transfected cells
# Sequence (O14791 28-398 S342G/I384M): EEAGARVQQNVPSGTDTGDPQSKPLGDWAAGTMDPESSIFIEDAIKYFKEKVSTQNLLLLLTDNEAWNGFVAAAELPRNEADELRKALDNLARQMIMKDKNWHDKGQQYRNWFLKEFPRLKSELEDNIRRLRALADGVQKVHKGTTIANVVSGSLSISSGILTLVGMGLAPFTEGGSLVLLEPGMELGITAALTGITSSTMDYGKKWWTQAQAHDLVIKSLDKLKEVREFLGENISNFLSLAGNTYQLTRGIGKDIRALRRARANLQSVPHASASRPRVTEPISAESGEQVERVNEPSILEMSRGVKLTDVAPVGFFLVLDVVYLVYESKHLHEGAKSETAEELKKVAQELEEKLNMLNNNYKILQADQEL
# assayProcedure: Acute APOL1 Thallium Assay with Inducible Stable Clones of HEK 293 Cells
# Type: cell-based
# statedConditions: HEK 293 inducible stable clones, G1 APOL1; read-out: Thallium Assay (IC50)
# Source text: Acute APOL1 Thallium Assay with Inducible Stable Clones of HEK 293 Cells Apolipoprotein L1 (APOL1) proteins form potassium-permeable cation pores in the plasma membrane. APOL1 risk variants (G1 and G2) induce greater potassium flux than G0 in HEK293 cells. […] The increase of fluorescence in the assay represents the influx of Tl+ into the cell specifically through the potassium channel (i.e. through APOL1 pores), providing a functional measurement of potassium channel/pore activity. […]
quantityMeasured: IC50

Observe how each entry below is paired with its result.
- sampleSmiles: "CNC(=O)CC(=O)NCCc1c(-c2ccc(F)cc2)[nH]c2c(F)cc(F)cc12"
  IC50: "> 1000 nM"
- sampleSmiles: "NC(=O)CNC(=O)OCCc1c(-c2ccc(F)cc2)[nH]c2c(F)cc(F)cc12"
  IC50: "< 250 nM"

Which IC50 reading was recorded for the compound O=C(CCc1c(-c2ccc(F)cc2)[nH]c2c(F)cc(Cl)cc12)NC(CO)(CO)CO ?
250 to 1000 nM

###

# targetOrTestSystem: G1 APOL1 (Homo sapiens, UniProt O14791, I384M/S342G)
# Construct: expressed in transfected cells
# assayProcedure: Acute APOL1 Thallium Assay with Inducible Stable Clones of HEK 293 Cells
# Type: cell-based
# statedConditions: HEK 293 inducible stable clones, G1 APOL1; read-out: Thallium Assay (IC50)
pIC50: −log10 of the molar value.
quantityMeasured: pIC50

Observe how each entry below is paired with its result.
- compound: "NCC1CCCCN1C(=O)CCc1c(-c2ccc(F)cc2)[nH]c2ccc(F)cc12 (stereo not drawn)"
  pIC50: "< 6.00"
- compound: "Cc1cc(F)c2[nH]c(-c3ccc(F)cc3)c(CCC(=O)NCC(N)=O)c2c1"
  pIC50: "< 6.00"
- compound: "CC(=O)NCCCCc1c(-c2ccc(F)cc2)[nH]c2c(F)cc(F)cc12"
  pIC50: "6.00 to 6.60"

Which pIC50 reading was recorded for the compound Cc1ccn(CC(=O)NCCc2c(-c3ccc(F)cc3)[nH]c3c(F)cc(F)cc23)n1 ?
< 6.00

###

# IC50 annotations
# targetOrTestSystem: APOL1 G1 Protein (Homo sapiens, UniProt O14791, I384M/S342G)
# assayProcedure: Trypanosoma brucei brucei Lysis Assay Using APOL1 Recombinant Protein (AlamarBlue viability)
# statedConditions: read-out: Trypanosomal Assay (IC50)

Observe how each entry below is paired with its result.
- compound: "CC(=O)NCCCc1c(-c2ccc(F)cc2)[nH]c2c(F)cc(F)cc12 [Compound 505]"
  IC50: "250 to 1000 nM"
- compound: "O=C(CCc1c(-c2ccc(F)cc2)[nH]c2c(F)cc(F)cc12)N[C@@H](CO)C(F)(F)F [Compound 121]"
  IC50: "< 250 nM"
- compound: "C[C@H](NC(=O)CCc1c(-c2ccc(F)cc2)[nH]c2ccc(F)cc12)C(N)=O [Compound 61]"
  IC50: "> 1000 nM"

Look up IC50 with APOL1 G1 Protein (Homo sapiens, UniProt O14791, I384M/S342G) for this compound: NC(=O)[C@@H](CO)NC(=O)CCc1c(-c2ccc(F)cc2)[nH]c2c(F)cc(F)cc12 [Compound 98]
> 1000 nM

Look up IC50 with APOL1 G1 Protein (Homo sapiens, UniProt O14791, I384M/S342G) for this compound: O=C(CCc1c(-c2ccc(F)cc2)[nH]c2ccc(F)cc12)Nc1cc[nH]n1 [Compound 70]
> 1000 nM

Look up IC50 with APOL1 G1 Protein (Homo sapiens, UniProt O14791, I384M/S342G) for this compound: CC(C)(C)OC(=O)N[C@H]1C[C@@H](NC(=O)CCc2c(-c3ccc(F)cc3)[nH]c3ccc(F)cc23)C1 [Compound 83]
> 1000 nM

Look up IC50 with APOL1 G1 Protein (Homo sapiens, UniProt O14791, I384M/S342G) for this compound: CC(C)(C)OC(=O)NC1CCC(NC(=O)CCc2c(-c3ccc(F)cc3)[nH]c3ccc(F)cc23)C1 (stereo not shown) [Compound 60]
> 1000 nM

Look up IC50 with APOL1 G1 Protein (Homo sapiens, UniProt O14791, I384M/S342G) for this compound: O=C(CCO)NCCc1c(-c2ccc(F)cc2)[nH]c2c(F)cc(F)cc12 [Compound 361]
250 to 1000 nM
